Hey, just so you know, these numbers are from patent US6399607B1.

System: M. avium complex
TEST_PROTOCOL: MIC in modified 7H10 broth against M. avium complex (Tables 3, 4)
Type: cell-based, Mycobacterium avium
Design: unit not given here
MEASUREMENT_PARAMETERS: Table 3; strain 101 (serotype 1); modified 7H10 broth, pH 5.8
MEASURED_PROPERTY: MIC, M. avium complex 101

Guide cases for MIC, M. avium complex 101, answers given:
- CCN(CC)CNC(=O)c1cnc(N(CC)CC)cn1 [Compound 17]: (>128
- CCN(CC)CNC(=O)c1cnccn1 [Compound 2]: 128
- NC(=O)c1cnccn1 [PZA, Pyrazinamide]: >2048
- NC(=O)c1cnc(Cl)cn1 [Compound 5-Chloro-PZA, 5-chloro-pyrazinamide, reference compound]: 32

Query: GET /values?readout=MIC, M. avium complex 101&system=M. avium complex&item= O=C(NCN1CCCC1)c1cnccn1 [Compound 1]
Response: >128
